These measurements were taken from paper PMC10847119.

For each entry below, report its Binding 0 h value.
Target: HLA-DRB1*15:01 (HLA-DR15) (Homo sapiens, UniProt P01903+P01911)
Assay: MHC Class II Reveal biophysical affinity binding assay of Sm 15-mer peptides
Details: Reveal score: % binding relative to positive control peptide bound to HLA-DR15; 37 °C; 0 h

[in] Give recorded Binding 0 h. RVLGLVLLRGENLVS [SmB/B'58-72]
[out] 51.3%

[in] State its Binding 0 h for this sequence: VYIRGSKIRFLILPD [SmD361-75, 15-mer SmD3 peptide …]
[out] 11.8%

[in] Find the measured Binding 0 h of MSNITVTYRDGRVAQ [SmD343-57, 15-mer SmD3 peptide …] and report it.
[out] 27.1%

[in] Provide one value: measured Binding 0 h of KMLQHIDYRMRCILQ [SmB/B'1-15, 15-mer Sm peptide …]
[out] 36.4%

[in] Provide Binding 0 h value for the following sequence: TLKNREPVQLETLSI [SmD146-60, 15-mer SmD1 peptide …]
[out] 7.4%

###

Target: HLA-DRB1*15:01 (HLA-DR15) (Homo sapiens, UniProt P01903+P01911)
Test: MHC Class II Reveal biophysical affinity binding assay of Sm 15-mer peptides
Details: Stability Index = t1/2 * Y[0]/100, from Reveal scores at 0 h and 24 h; 37 °C
Field 'label' (enum: true (1) / false (0)). Set to true (1) when Stability index is strictly under 1; else false (0).

[in] Criterion: Stability index strictly below 1. Is it met by RVLGLVLLRGENLVS [SmB/B'58-72] ?
[out] false (0)

[in] Report whether reported Stability index is lower than 1 (strictly) for VYIRGSKIRFLILPD [SmD361-75, 15-mer SmD3 peptide …]
[out] true (1)

[in] Please let me know if KMLQHIDYRMRCILQ [SmB/B'1-15, 15-mer Sm peptide …] shows Stability index below 1.
[out] false (0)

[in] Determine whether this sequence shows Stability index lower than 1 (ties excluded): TLKNREPVQLETLSI [SmD146-60, 15-mer SmD1 peptide …]
[out] true (1)

[in] Threshold test, Stability index < 1: MSNITVTYRDGRVAQ [SmD343-57, 15-mer SmD3 peptide …]
[out] false (0)

###

Biological target: HLA-DRB1*15:01 (HLA-DR15) (Homo sapiens, UniProt P01903+P01911)
Assay: MHC Class II Reveal biophysical affinity binding assay of Sm 15-mer peptides
Conditions: Reveal score: % binding relative to positive control peptide bound to HLA-DR15; 37 °C; 24 h
Could you please report measured Binding 24 h for the items listed next?
Respond with the bare value in %.

[in] Give Binding 24 h for TLKNREPVQLETLSI [SmD146-60, 15-mer SmD1 peptide …]
[out] 0.9

[in] Quote Binding 24 h reported for KMLQHIDYRMRCILQ [SmB/B'1-15, 15-mer Sm peptide …] please.
[out] 0.5

[in] Find the measured Binding 24 h of MSNITVTYRDGRVAQ [SmD343-57, 15-mer SmD3 peptide …] and report it.
[out] 0.7

[in] Please report the measured Binding 24 h for VYIRGSKIRFLILPD [SmD361-75, 15-mer SmD3 peptide …]
[out] 0.2

[in] Find the measured Binding 24 h of RVLGLVLLRGENLVS [SmB/B'58-72] and report it.
[out] 30.1
